Target: Receptor-type tyrosine-protein kinase FLT3 (Homo sapiens) (UniProt P36888)
Sequence (P36888 whole entry, looked up): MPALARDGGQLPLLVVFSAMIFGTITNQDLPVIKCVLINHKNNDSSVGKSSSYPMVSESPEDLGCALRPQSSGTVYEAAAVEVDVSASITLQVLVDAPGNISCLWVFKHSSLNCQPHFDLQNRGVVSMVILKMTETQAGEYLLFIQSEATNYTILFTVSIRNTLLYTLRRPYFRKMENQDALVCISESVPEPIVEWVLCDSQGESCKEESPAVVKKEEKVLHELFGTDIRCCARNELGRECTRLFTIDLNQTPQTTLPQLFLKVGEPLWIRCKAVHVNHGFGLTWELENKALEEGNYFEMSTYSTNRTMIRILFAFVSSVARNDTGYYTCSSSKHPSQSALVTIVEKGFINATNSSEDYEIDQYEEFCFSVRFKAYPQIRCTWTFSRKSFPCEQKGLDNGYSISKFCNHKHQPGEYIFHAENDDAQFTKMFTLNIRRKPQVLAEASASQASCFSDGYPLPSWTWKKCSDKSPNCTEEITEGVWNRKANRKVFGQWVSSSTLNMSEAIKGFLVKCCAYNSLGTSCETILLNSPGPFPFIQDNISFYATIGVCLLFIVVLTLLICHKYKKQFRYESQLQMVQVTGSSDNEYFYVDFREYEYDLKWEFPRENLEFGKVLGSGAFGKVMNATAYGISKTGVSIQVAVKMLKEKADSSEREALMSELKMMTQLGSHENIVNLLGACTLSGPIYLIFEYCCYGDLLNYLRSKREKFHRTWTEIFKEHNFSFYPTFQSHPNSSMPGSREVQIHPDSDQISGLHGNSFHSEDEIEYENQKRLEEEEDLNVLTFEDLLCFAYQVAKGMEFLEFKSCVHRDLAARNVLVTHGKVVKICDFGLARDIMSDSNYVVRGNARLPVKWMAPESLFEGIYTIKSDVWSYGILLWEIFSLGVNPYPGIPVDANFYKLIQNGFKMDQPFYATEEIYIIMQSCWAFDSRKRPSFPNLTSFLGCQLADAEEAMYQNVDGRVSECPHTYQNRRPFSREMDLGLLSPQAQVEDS
Test: inhibitors of Homo sapiens fms-like tyrosine kinase 3, primary HTS, cell-free, LANCE Ultra TR-FRET, NPC library from NCATS (AID 1117356)
Details: recombinant FLT3, LANCE Ultra TR-FRET kinase assay; at 20 µM; active compounds read high
endpoint-name: inhibition (%)
Please respond with the number in % and leave the unit unwritten.

As a guide, the following entries are already answered.
O=C1c2c(O)ccc(O)c2C(=O)c2c(NCCNCCO)ccc(NCCNCCO)c21 | -19.7
COc1ccc(-c2nc3ccc(C4=NNC(=O)CC4C)cc3[nH]2)cc1 (stereo not given) | 72.3
Cc1cc(=O)c2c(O)c3c(O)cc(=O)c4c3c3c(cc(O)c1c23)C(C)(C)C=4O | 62.5
CN(C)c1ccc2nc3ccc(=[N+](C)C)cc-3sc2c1 | -76.3
O=C(CCl)c1ccc(Cl)cc1Cl | -7.4
COC(=O)c1nc(Cl)c(Cl)nc1N | 60.2
CCC(C)n1ncn(-c2ccc(N3CCN(c4ccc(OC[C@H]5CO[C@](Cn6cncn6)(c6ccc(Cl)cc6Cl)O5)cc4)CC3)cc2)c1=O (stereo not given in full) | -23.6
Cn1cnc([N+](=O)[O-])c1Sc1ncnc2nc[nH]c12 | -6.53
Oc1c(Cl)cc(Cl)c2cccnc12 | -9.04
Cc1nc2ccc(CN(C)c3ccc(C(=O)N[C@@H](CCC(=O)O)C(=O)O)s3)cc2c(=O)[nH]1 | 1.97

Switching to the query record.
Ask: Assign inhibition to the following record: COc1cc2c(c(OC)c1OC)-c1ccc(OC)c(=O)cc1[C@@H](NC(C)=O)CC2
Result: -1.26
